Tested on: BT-549 breast
Assay: NCI tumour cell line growth inhibition, 48 h
experimental.readout: TGI (µM)
# value in µM; strip the unit string

Request: Which TGI is reported for this compound? `Cc1nc(-c2cc3ccccc3oc2=O)cs1`
Result: 31

Request: If you can, please state the reported TGI value of `CS(=O)(=O)c1ccc(Nc2nc(N[C@H]3CCCC[C@H]3N)nc3cc[nH]c(=O)c23)cc1` .
Result: 5.51

Request: Data request, read-out TGI, for `C#C[C@@]1(O)[C@@H](CO)O[C@@H](n2cc(I)c3c(N)ncnc32)[C@@H]1O`
Result: 4.01

Request: TGI lookup needed for O=C1CSC(c2ccccc2Cl)N1c1nnc(Cn2cnnc2)o1 (configuration not stated) , thanks.
Result: 32.5

Request: Value lookup for TGI; key = COc1cccc(C2c3cc4c(cc3OC(Nc3ccccc3)C2C)OCO4)c1O (configuration not stated)
Result: 38.8

Request: Bench note: what TGI did `Cc1cc(S(=O)(=O)/N=C(/NN)Nc2ccc(Cl)cc2)c(S)cc1Cl` show?
Result: 34.6

Request: For the compound shown here, `Cc1cc(-c2c(F)cc3c4nn([C@H]5CC[C@@H](N(C)C)CC5)c(=O)c-4cn(C4CC4)c3c2F)cc(C)n1` , give the reported TGI.
Result: 10.8

Request: # query: TGI of entry `Cc1ccc(-c2nc(/C=N/Nc3cc(C)nc4ccc(Cl)cc34)c(C)o2)cc1`
Result: 3.27

Request: Could you tell me which TGI is on file for `COc1ccc(-c2cncn2-c2cc(OC)c(OC)c(OC)c2)cc1` ?
Result: 52

Request: What does the data say about its TGI? Entry: `CCCCC#Cc1c(I)n(C)c(=O)[nH]c1=O`
Result: 4.55

Request: What does the record list as TGI for `O=C(/C=C/C=C/c1ccccc1)c1ccco1` ?
Result: 40.7

Request: For the compound `CC1(C)CC[C@]2(C(=O)O)CC[C@]3(C)[C@H](C(=O)C=C4[C@@]5(C)C=C(C#N)C(=O)C(C)(C)[C@@H]5CC[C@]43C)[C@@H]2C1` , what TGI is on record?
Result: 4.11

----------
Tested on: CAKI-1 renal
Test: NCI tumour cell line growth inhibition, 48 h
experimental.readout: TGI (µM)
Express the result in µM but write the number alone.

Request: Please report the recorded TGI for O=C(NNc1ccc(Cl)cc1)C1CCC(CNS(=O)(=O)c2ccccc2Cl)CC1 (stereo not given) .
Result: 12.6

Request: Look up TGI: `Clc1ccc(C2=CCN3CC=C(c4ccc(Cl)cc4)C23)cc1`
Result: 27.4

Request: TGI for COC1=CC(C2c3cc4c(cc3[C@@H](Nc3ccc(F)cc3)C3COC(=O)[C@H]23)OCO4)=CC(=O)C1=O (stereo not given in full) ?
Result: 31.9

Request: For the compound C=C1CC(C)(c2cccc(Nc3nc4ccccc4c4occc34)c2)OC1=O (stereo not given) , what TGI is on record?
Result: 16.7

Request: // query TGI value for entry CCCCCCCCC#CCCCCCCCCCC[C@@H]1C(=O)O[C@H](C)[C@@H]1O (tested in a mixture with another compound)
Result: 29.1

Request: Field request: TGI | item: CCN(CC)CCCC(C)Nc1cc(-c2cccc(OC(F)(F)F)c2)nc2ccc(N3CCCC3)cc12 (stereo not given)
Result: 31.5

----------
Please respond with reported TGI for every item in the list.
Test system: BT-549 breast
Experiment: NCI tumour cell line growth inhibition, 48 h
Just the number please, in µM, no unit attached.

Request: # lookup: TGI of `Clc1ccc(-c2c3ccc(=[N+]4CCCCC4)cc-3oc3cc(N4CCCCC4)ccc23)cc1`
Result: 0.31

Request: What does the record list as TGI for `O=[Se](O)O` ?
Result: 39

Request: So what's the measured TGI for this one? CN(C)CC1CCC(CN(C)C)C(=O)C1=O (stereo unspecified)
Result: 20.9

Request: Fill in: TGI of CCCCCCCCC#CCCCCCCCCCC[C@@H]1C(=O)O[C@H](C)[C@@H]1O (tested in a mixture with another compound) is ___
Result: 38.5

Request: Which measured TGI value corresponds to `CSc1nc2nc3c(nc2c(=O)n1C)C(=O)c1ccccc1C3=O` ?
Result: 0.305

Request: Look up TGI for this compound: `c1ccc(OCCC[P+](c2ccccc2)(c2ccccc2)c2ccccc2)cc1`
Result: 17.1

Request: Bench note: what TGI did COc1ccccc1S(=O)(=O)Nc1ccc2c3c(cc(CCC(=O)NCCCCNc4cccc5c4C(=O)N(C4CCC(=O)NC4=O)C5=O)cc13)C(=O)N2C (stereo unspecified) show?
Result: 1.56

Request: Give the measured TGI of `Cc1c([C@H](C)[C@@H]2NC[C@@H](C)C[C@H]2O)ccc2c1C[C@H]1[C@H]2CC=C2C[C@@H](O)CC[C@@]21C` .
Result: 54.5

Request: Query (compound): `COc1cccc2cc(N(C)c3nc(C)nc4c3CCC4)ccc12` ; field requested: TGI
Result: 11

Request: # query: TGI of entry `O=C(c1ccc(Cl)cc1)N1CCN=C1c1cc2ccccc2c2ccccc12`
Result: 33.6

Request: Value lookup for TGI; key = `Cc1cc(C)c(C#N)c(Sc2nc(C)c([N+](=O)[O-])c(C)c2C#N)n1`
Result: 7.5

Request: Any idea what TGI was measured for `CN=C1C=CC(=C(c2ccc(N(C)C)cc2)c2ccc(N(C)C)cc2)C=C1` ?
Result: 1.28

Request: TGI for `CCCCCCSSC(=S)N(CC)CC` ?
Result: 45.2

----------
Test system: A498 renal
Assay: NCI tumour cell line growth inhibition, 48 h; in the data active = GI50 below about 0.43 µM; inactive = the rest
Choose one outcome from this list and give only that: 1 (active), 0 (inactive)

Request: Recorded test outcome, item `CCCOC(=O)c1c(C)n(C)c2scc[n+]12`
Result: 0

Request: Tell me the recorded outcome of this test for `CSc1nc2nc3c(nc2c(=O)n1C)C(=O)c1ccccc1C3=O` .
Result: 1

Request: Please share the test call associated with `CC(=O)N1CCN(CCNC(=O)n2cc(-c3ccncc3)c(-c3cc(O)cc(Cl)c3)n2)CC1` .
Result: 0

Request: Given `O=C(Nc1ccccc1I(=O)=O)C1CCCCC1` , state the outcome it received in this test.
Result: 0

Request: What is the recorded call for this compound in the test? COc1cc(OC)cc(C2C3=C(COC3=O)Nc3cc(OC)ccc32)c1 (stereo not given)
Result: 1

Request: I'd appreciate the recorded outcome for CCN(CC)CCCC(C)Nc1cc(-c2cccc(OC(F)(F)F)c2)nc2ccc(N3CCCC3)cc12 (stereo not given) from this test.
Result: 1

Request: What classification did `C#C[C@@]1(O)[C@@H](CO)O[C@@H](n2cc(I)c3c(N)ncnc32)[C@@H]1O` end up with in this test?
Result: 1

Request: Answer briefly: the call reported for `CN(C)CCCn1c(=O)c2ccccc2c2cnc3[nH]ccc3c21` in this assay.
Result: 0

Request: Write down the call the test reported for this compound. Item: `CCCCCCSSC(=S)N(CC)CC`
Result: 0

Request: Please let me know the test result on file for `COc1ccc(-c2cncn2-c2cc(OC)c(OC)c(OC)c2)cc1` .
Result: 1

Request: What is the recorded call for this compound in the test? `CC(C)N(Cc1ccc(CN(C(=O)CCl)C(C)C)cc1)C(=O)CCl`
Result: 0

Request: Hi team, can someone confirm the assay call for `CS(=O)(=O)Nc1cccc(-c2ccc3ncnc(Nc4ccc(F)c(Cl)c4)c3c2)c1` ?
Result: 1

Request: Would you mind telling me which call this test gave `Cc1c(C#N)cccc1[C@@H](C)Nc1nnc(C)c2cnc(N3CCOCC3)cc12` ?
Result: 0

Request: How did this test come out for `O=C(CN(/C=C/C(=O)C(F)(F)F)c1ccc(Cl)cc1)c1ccc(Cl)c(Cl)c1` ?
Result: 0

Request: Any idea what this test logged for N#CC1=C(N)Oc2c(ccc3ccccc23)C1c1cc(=O)oc2ccc(Cl)cc12 (stereo not given) ?
Result: 0

Request: Test call for this compound, please: `Cc1ccc(-c2nc(/C=N/Nc3cc(C)nc4ccc(Cl)cc34)c(C)o2)cc1`
Result: 0

Request: Per the records of this test, what outcome belongs to `CS(=O)(=O)c1ccc(Nc2nc(N[C@H]3CCCC[C@H]3N)nc3cc[nH]c(=O)c23)cc1` ?
Result: 0

Request: Hi, sorry to bother you, what did the test record for `Clc1ccc(-c2c3ccc(=[N+]4CCCCC4)cc-3oc3cc(N4CCCCC4)ccc23)cc1` ?
Result: 1

Request: Write down the call the test reported for this compound. Item: `CNCCCNc1nc2ccccc2c2c(=O)c3cc(OC)ccc3sc12`
Result: 0

Request: Record request — test call for COc1ccc(-c2cc3c(C)nc(N)nc3n(C3CCC(OCCO)CC3)c2=O)cn1 (stereo not given)
Result: 1
